Hey, just so you know, these numbers are from paper PMC10574532.

# ASSAY REMARKS: pH-dependent equilibrium solubility of ketoconazole in biorelevant fluids (FaSSIF) with or without precipitation inhibitor
# Type: physicochemical
# MEASUREMENT SETUP: FaSSIF, modified Henderson-Hasselbalch fit, 37 °C, read-out: CU (concentration of unionized form) of the fitted pH-solubility function

COMPOUND	solubility at 24 h
CC(=O)N1CCN(c2ccc(OCC3COC(Cn4ccnc4)(c4ccc(Cl)cc4Cl)O3)cc2)CC1 (stereo not shown)	7.88 µg/mL

###

# ASSAY REMARKS: In vivo pharmacokinetics
# Set-up: species or system Male Sprague Dawley rats
# MEASUREMENT SETUP: male, Sprague Dawley, rat, plasma, po, 10 mg/kg; read-out: Cmax, Observation

MOLECULE	Cmax (ng/mL)
CC(=O)N1CCN(c2ccc(OCC3COC(Cn4ccnc4)(c4ccc(Cl)cc4Cl)O3)cc2)CC1 (stereo not shown)	41300
